Below is a list of entries, each paired with its recorded IC50, JRFL pseudovirion entry value.
Target: HIV-1 JRFL envelope glycoprotein gp41 (N-trimer of the prehairpin intermediate) (HIV-1 strain JRFL)
Assay: cell-based or functional assay
Bridges are numbered along the chain shown (N, C = ends). [ ]: non-standard residue; d: D form.

BINDER	READOUT_QUALIFIER	IC50, JRFL pseudovirion entry, nM
Ac-[dK]G[dA][dC][dD][dY][dP][dE][dW][dQ][dW][dL][dC][dA][dA]-NH2 (disulfide 4-13 (inferred); also: dimer linked N- to C-terminal by PEG9 spacer) [N9C(PIE7)2]	=	310
Ac-[dK]G[dA][dC][dD][dY][dP][dE][dW][dQ][dW][dL][dC][dA][dA]-NH2 (disulfide 4-13 (inferred); also: dimer linked N- to C-terminal by zero-length spacer) [N0C(PIE7)2]	=	400
Ac-[dK]G[dA][dC][dD][dY][dP][dE][dW][dQ][dW][dL][dC][dA][dA]-NH2 (disulfide 4-13 (inferred); also: dimer, N- to N-terminal Lys crosslinked by Bis-dPEG9 NHS ester) [N9N(PIE7)2]	=	2300
Ac-G[dA][dC][dD][dY][dP][dE][dW][dQ][dW][dL][dC][dA][dA]G[dK]-NH2 (disulfide 3-12 (inferred); also: PEG4 attached at the C-terminus) [PIE7-GK-PEG4]	=	13100
Ac-[dK][dK]G[dA][dC][dE][dS][dP][dE][dW][dR][dW][dL][dC][dA][dA]-NH2 (disulfide 5-14 (inferred)) [2K-PIE1]	>	100000
Ac-[dH][dP][dC][dD][dY][dP][dE][dW][dQ][dW][dL][dC]K[dL]G[dK]-NH2 (disulfide 3-12 (inferred); not fully specified (residue 13); also: dimer crosslinked by PEG5 via internal Lys) [PEG5-(PIE13)2]	=	15
Ac-[dK]G[dA][dC][dD][dY][dP][dE][dW][dQ][dW][dL][dC][dA][dA]-NH2 (disulfide 4-13 (inferred)) [PIE7]	=	24000
